Molecular target: tau (Homo sapiens)
Test: MCE Phenols Library screening, tau biosensor cell seeding assay (AvZ)
Type: cell-based
Conditions: puncta, replicate 2
PROPERTY: raw data 2
# output: bare number, no unit

Use the examples below as a reference point.
COMPOUND | VALUE OBSERVED
O=c1c2cc(O)c(O)cc2oc2c([C@@H]3O[C@H](CO)[C@@H](O)[C@H](O)[C@H]3O)c(O)cc(O)c12 | 18501.6
COc1ccc(O)c(C(=O)O)c1 | 19818.6

Qu. Could you share which raw data 2 value was measured for O=C(O[C@@H]1[C@@H](O)[C@H](Oc2cc(O)c(C(=O)CCc3ccccc3)c(O)c2)O[C@@H]2COC(=O)c3cc(O)c(O)c(O)c3-c3c(cc(O)c(O)c3O)C(=O)O[C@@H]12)c1cc(O)c(O)c(O)c1 ?
Ans. 5797.27

Qu. Could you share which raw data 2 value was measured for Cc1cc(O)c2c(=O)c3c(O)cc(O)c4c5c(O)cc(O)c6c(=O)c7c(O)cc(C)c8c1c2c(c34)c(c78)c65 ?
Ans. 8238.56

Qu. Could you share which raw data 2 value was measured for C[C@@H]1O[C@@H](Oc2c(-c3ccc(O)cc3)oc3cc(O[C@@H]4O[C@@H](C)[C@H](O)[C@@H](O)[C@H]4O[C@@H]4O[C@H](CO)[C@@H](O)[C@H](O)[C@H]4O)cc(O)c3c2=O)[C@H](O)[C@H](O)[C@H]1O ?
Ans. 20271.9

Qu. Could you share which raw data 2 value was measured for O=c1cc(-c2ccc(O)cc2)oc2cc(O)ccc12 [7,4'-Dihydroxyflavone] ?
Ans. 11325.8

----------
Molecular target: tau (Homo sapiens)
Test: MCE Phenols Library screening, tau biosensor cell seeding assay (AvZ)
Format: cell-based
Settings: Z score, replicate 1
Threshold check on Z repl 1: at or above -0.3 gives Y, strictly below gives N.

// below: answered compounds
COMPOUND | CATEGORY
O=C(/C=C/c1ccc(O)cc1)c1ccccc1 [4-Hydroxychalcone] | N
O=c1c(O[C@@H]2O[C@H](CO)[C@@H](O)[C@H](O)[C@H]2O)c(-c2ccc(O)c(O)c2)oc2cc(O[C@@H]3O[C@H](CO[C@@H]4O[C@H](CO)[C@@H](O)[C@H](O)[C@H]4O)[C@@H](O)[C@H](O)[C@H]3O)cc(O)c12 | N
Cc1cc2c(C(C)C)c(O)c(O)c(C=O)c2c(O)c1-c1c(C)cc2c(C(C)C)c(O)c(O)c(C=O)c2c1O [Gossypol] | N
O=C(O)c1ccc(O)c(O)c1O [2,3,4-Trihydroxybenzoic acid] | N
COc1cc(O)c(C(C)=O)c(OC)c1 [Xanthoxylin] | Y
Oc1c(Br)cccc1Br [2,6-Dibromophenol] | N

Qu. Would you say COc1ccc(/C=C/c2cc(O)cc(O)c2)cc1 [4'-Methoxyresveratrol] shows Z repl 1 at minimum -0.3?
Ans. Y

Qu. Would you say COc1cc2c(cc1O)CCN1Cc3c(ccc(OC)c3OC)CC21 (centres unmarked) [Corypalmine] shows Z repl 1 at minimum -0.3?
Ans. Y

----------
Molecular target: UniProt:P10636
Assay: MCE Phenols Library screening, tau biosensor cell seeding assay (AvZ)
Type: cell-based
Details: Z score, replicate 2
Under this convention, t denotes Z Repl 2 strictly below 0.4 and f denotes Z Repl 2 at or above 0.4.

// below: answered compounds
COMPOUND | STUDY TARGET | CATEGORY
COc1ccc(-c2oc3c(CC=C(C)C)c(O)cc(O)c3c(=O)c2O[C@@H]2O[C@@H](C)[C@H](O)[C@@H](O)[C@H]2O)cc1 [Baohuoside I] | UniProt:P10636 | f
O=C(/C=C/c1ccc(O)cc1)OC[C@H]1O[C@@H](Oc2c(-c3ccc(O)cc3)oc3cc(O)cc(O)c3c2=O)[C@H](O)[C@@H](O)[C@@H]1O [Tribuloside] | UniProt:P10636 | t
O=c1c(O)c(-c2ccc(O)cc2)oc2cc(O)cc(O)c12 | UniProt:P10636 | t
COC(=O)Cc1ccc(O)cc1 [Methyl 4-hydroxyphenylacetate] | UniProt:P10636 | t
O=C(O)[C@H]1O[C@@H](Oc2c(-c3ccc(O)c(O)c3)oc3cc(O)cc(O)c3c2=O)[C@H](O)[C@@H](O)[C@@H]1O | UniProt:P10636 | f

Qu. is_below(Z Repl 2, 0.4) for COc1cc2c(=O)c(-c3ccc(O)cc3)coc2cc1O ?
Ans. t

Qu. is_below(Z Repl 2, 0.4) for O=C(O[C@H](Cc1ccc(O)c(O)c1)C(=O)O)C1=Cc2cc(O)c(O)cc2[C@H](c2ccc(O)c(O)c2)[C@H]1C(=O)OC(Cc1ccc(O)c(O)c1)C(=O)O (stereo in doubt) ?
Ans. t

----------
Target: tau (Homo sapiens, UniProt P10636)
Sequence (P10636 623-695 limits assumed): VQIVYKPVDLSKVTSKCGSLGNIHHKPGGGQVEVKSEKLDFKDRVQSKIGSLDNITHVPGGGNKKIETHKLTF
Assay: MCE Phenols Library screening, tau biosensor cell seeding assay (AvZ)
Assay type: cell-based
Conditions: Z score, replicate 2
PROPERTY: Z Repl 2
# output: bare number, no unit

Use the examples below as a reference point.
COMPOUND | STUDY TARGET | Z Repl 2
O=C1c2ccccc2C(=O)c2c1ccc(O)c2O | tau (Homo sapiens, UniProt P10636) | -0.047
COc1cc(C(=O)O[C@H]2[C@@H]3C=CO[C@@H](O[C@@H]4O[C@H](CO)[C@@H](O)[C@H](O)[C@H]4O)[C@@H]3[C@@]3(CO)O[C@@H]23)ccc1O [Picroside II] | tau (Homo sapiens, UniProt P10636) | -0.853
COc1cc(O)c2c(=O)c(OC)c(-c3ccc(OC)c(O)c3)oc2c1 | tau (Homo sapiens, UniProt P10636) | -0.903

Qu. Could you share which Z Repl 2 value was measured for OC[C@H]1O[C@@H](Oc2cc3c(O)cc(O)cc3[o+]c2-c2ccc(O)c(O)c2)[C@H](O)[C@@H](O)[C@@H]1O.[Cl-] [Kuromanin (chloride)] ?
Ans. -0.888

----------
Biological target: tau (Homo sapiens)
Assay: MCE Phenols Library screening, tau biosensor cell seeding assay (AvZ)
Assay type: cell-based
Conditions: puncta, replicate 2
PROPERTY: raw data 2
# output: bare number, no unit

COMPOUND | VALUE OBSERVED
COc1cc([C@@H]2OC[C@@H]3[C@H]2CO[C@H]3c2cc(OC)c(O[C@@H]3O[C@H](CO)[C@@H](O)[C@H](O)[C@H]3O[C@@H]3OC[C@](O)(CO)[C@H]3O)c(OC)c2)cc(OC)c1O | 22911
COc1ccc(O)cc1 | 12942.5
COc1cc(O)c(C(=O)/C=C/c2ccc(O)cc2)cc1CC=C(C)C | 15222.5
Oc1ccc(O)c(O)c1 [1,2,4-Trihydroxybenzene] | 464.513

Qu. Could you share which raw data 2 value was measured for CC(C)=CCC/C(C)=C/Cc1cc(-c2coc3cc(O)ccc3c2=O)ccc1O ?
Ans. 8008.18

Qu. Could you share which raw data 2 value was measured for O=C(O)CCc1cccc(O)c1 [3-(3-Hydroxyphenyl)propionic acid] ?
Ans. 29350.4

Qu. Could you share which raw data 2 value was measured for CC(C)=CCc1cc2c(cc1O)O[C@H](c1ccc(O)cc1)CC2=O ?
Ans. 4573.9

Qu. Could you share which raw data 2 value was measured for OCc1ccc(O[C@@H]2O[C@H](CO)[C@@H](O)[C@H](O)[C@H]2O)cc1 ?
Ans. 6136.55

----------
Target: tau (Homo sapiens)
Experiment: MCE Phenols Library screening, tau biosensor cell seeding assay (AvZ)
Type: cell-based
Conditions: Z score, replicate 1
Listed here are compounds together with their documented Z repl 1.

Use the examples below as a reference point.
MOLECULE | Z repl 1
O=C(CCCCCCCCc1ccc(O)c(O)c1)c1c(O)cccc1O | -0.224
COc1cc([C@@H]2Oc3c(O)cc([C@H]4Oc5cc(O)cc(O)c5C(=O)[C@@H]4O)cc3[C@H]2CO)ccc1O | 0.429

Qu. Request body: readout Z repl 1, system tau (Homo sapiens), query Oc1cc(O)c2c(c1)O[C@@]1(c3ccc(O)c(O)c3)Oc3cc(O)c4c(c3[C@@H]2[C@H]1O)O[C@H](c1ccc(O)c(O)c1)[C@@H](O)C4 . Return the value.
Ans. 0.114

Qu. Request body: readout Z repl 1, system tau (Homo sapiens), query Cc1cc(=O)oc2cc(O)ccc12 . Return the value.
Ans. -0.898

----------
Biological target: tau (Homo sapiens)
Test: MCE Phenols Library screening, tau biosensor cell seeding assay (AvZ)
Format: cell-based
Details: puncta, replicate 1
Listed here are compounds together with their documented raw data 1.
# output: bare number, no unit

COMPOUND | STUDY TARGET | raw data 1
CC(=O)Cc1cc(=O)c2c(C)cc(O)c([C@@H]3O[C@H](CO)[C@@H](O)[C@H](O)[C@H]3O)c2o1 | tau (Homo sapiens) | 31839.2

Qu. Could you share which raw data 1 value was measured for CC(=O)c1ccc(O)c(C)c1 [4'-Hydroxy-3'-methylacetophenone] ?
Ans. 26771.9
